System: Du145
Assay: Cytotoxicity assay (cell titer-glo and calcein AM), Du145
Conditions: read-out: Cytotoxicity IC50, Du145, calcein; Du145; calcein AM readout; % error in parentheses
Reported pIC50 values for the following compounds.
pIC50 is a log-scale quantity: -log10 of the concentration expressed in molar.

// solved cases for pIC50 follow
compound | attribute-measured | result-value
COc1cc2c(c(OC)c1OC)-c1ccc(OC)c(=O)cc1[C@@H](NC(=O)CN(OC)[C@@H]1OC[C@@H](O)[C@H](O)[C@@H]1O)CC2 [Col1, D-lyxoside] | pIC50 | 5.70
COc1cc2c(c(OC)c1OC)-c1ccc(OC)c(=O)cc1[C@@H](NC(=O)CN(OC)[C@@H]1O[C@H](CO)[C@@H](O[C@H]3O[C@H](CO)[C@@H](O)[C@H](O)[C@H]3O)[C@H](O)[C@H]1O)CC2 [Col38, D-maltoside] | pIC50 | 6.47
COc1cc2c(c(OC)c1OC)-c1ccc(OC)c(=O)cc1[C@@H](NC(=O)CN(OC)[C@@H]1O[C@H](C(=O)O)[C@@H](O)[C@H](O)[C@H]1O)CC2 [Col15, D-glucuronoside] | pIC50 | 5.79

stdin: What value of pIC50 has been recorded for this entry: COc1cc2c(c(OC)c1OC)-c1ccc(OC)c(=O)cc1[C@@H](NC(=O)CN(OC)[C@@H]1O[C@H](CO)[C@@H](O)C[C@H]1O)CC2 [Col3, 3-deoxy-D-glucoside]
stdout: 5.18

stdin: What value of pIC50 has been recorded for this entry: COc1cc2c(c(OC)c1OC)-c1ccc(OC)c(=O)cc1[C@@H](NC(=O)CN(OC)[C@@H]1O[C@H](CBr)[C@H](O)[C@H](O)[C@H]1O)CC2 [Col42, 6-deoxy-6-bromo-D-galactoside]
stdout: 5.37

stdin: What value of pIC50 has been recorded for this entry: COc1cc2c(c(OC)c1OC)-c1ccc(OC)c(=O)cc1[C@@H](NC(=O)CN(OC)[C@@H]1O[C@H](CO)[C@@H](O)[C@H](O)[C@H]1F)CC2 [Col34, 2-fluoro-2-deoxy-D-glucoside]
stdout: 6.48

stdin: What value of pIC50 has been recorded for this entry: COc1cc2c(c(OC)c1OC)-c1ccc(OC)c(=O)cc1C(NC(=O)CN(OC)C1CC(O)C(O)C(C)O1)CC2 [Col65, D-Digitoxoside]
stdout: 6.03

stdin: What value of pIC50 has been recorded for this entry: COc1cc2c(c(OC)c1OC)-c1ccc(OC)c(=O)cc1[C@@H](NC(=O)CN(OC)[C@@H]1O[C@H](CO)[C@@H](O)[C@H](F)[C@H]1O)CC2 [Col33, 3-fluoro-3-deoxy-D-glucoside]
stdout: 5.26

stdin: What value of pIC50 has been recorded for this entry: CCCCCCCCCC(=O)NC[C@H]1O[C@@H](N(CC(=O)N[C@H]2CCc3cc(OC)c(OC)c(OC)c3-c3ccc(OC)c(=O)cc32)OC)[C@H](O)[C@@H](O)[C@@H]1O [Col59, 6-deoxy-6-N-decanoyl-D-glucosaminoside]
stdout: 5.15

stdin: What value of pIC50 has been recorded for this entry: COc1cc2c(c(OC)c1OC)-c1ccc(OC)c(=O)cc1C(NC(=O)CN(OC)C1OCC(O)C(O)C1O)CC2 [Col20, D-arabinoside]
stdout: 5.43

stdin: What value of pIC50 has been recorded for this entry: COc1cc2c(c(OC)c1OC)-c1ccc(OC)c(=O)cc1[C@@H](NC(=O)CN(OC)[C@@H]1O[C@H](CN=[N+]=[N-])[C@H](O)[C@H](O)[C@H]1O)CC2 [Col43, 6-deoxy-6-azido-D-galactoside]
stdout: 5.38

stdin: What value of pIC50 has been recorded for this entry: COc1cc2c(c(OC)c1OC)-c1ccc(OC)c(=O)cc1C(NC(=O)CN(OC)C1OC(COCc3ccccc3)C(OCc3ccccc3)C1OCc1ccccc1)CC2 (stereo not shown) [Col53]
stdout: 7.49

stdin: What value of pIC50 has been recorded for this entry: COc1cccc2c1C(=O)c1c(O)c3c(c(O)c1C2=O)C[C@@](O)(C(=O)CO)C[C@@H]3O[C@H]1C[C@H](N)[C@H](O)[C@H](C)O1 [doxorubi]
stdout: 6.47
